# Test target: human O-GlcNAcase (hOGA) (Homo sapiens)
# Construct: residues 53–916, GST fusion
# Sequence (O60502 53-916): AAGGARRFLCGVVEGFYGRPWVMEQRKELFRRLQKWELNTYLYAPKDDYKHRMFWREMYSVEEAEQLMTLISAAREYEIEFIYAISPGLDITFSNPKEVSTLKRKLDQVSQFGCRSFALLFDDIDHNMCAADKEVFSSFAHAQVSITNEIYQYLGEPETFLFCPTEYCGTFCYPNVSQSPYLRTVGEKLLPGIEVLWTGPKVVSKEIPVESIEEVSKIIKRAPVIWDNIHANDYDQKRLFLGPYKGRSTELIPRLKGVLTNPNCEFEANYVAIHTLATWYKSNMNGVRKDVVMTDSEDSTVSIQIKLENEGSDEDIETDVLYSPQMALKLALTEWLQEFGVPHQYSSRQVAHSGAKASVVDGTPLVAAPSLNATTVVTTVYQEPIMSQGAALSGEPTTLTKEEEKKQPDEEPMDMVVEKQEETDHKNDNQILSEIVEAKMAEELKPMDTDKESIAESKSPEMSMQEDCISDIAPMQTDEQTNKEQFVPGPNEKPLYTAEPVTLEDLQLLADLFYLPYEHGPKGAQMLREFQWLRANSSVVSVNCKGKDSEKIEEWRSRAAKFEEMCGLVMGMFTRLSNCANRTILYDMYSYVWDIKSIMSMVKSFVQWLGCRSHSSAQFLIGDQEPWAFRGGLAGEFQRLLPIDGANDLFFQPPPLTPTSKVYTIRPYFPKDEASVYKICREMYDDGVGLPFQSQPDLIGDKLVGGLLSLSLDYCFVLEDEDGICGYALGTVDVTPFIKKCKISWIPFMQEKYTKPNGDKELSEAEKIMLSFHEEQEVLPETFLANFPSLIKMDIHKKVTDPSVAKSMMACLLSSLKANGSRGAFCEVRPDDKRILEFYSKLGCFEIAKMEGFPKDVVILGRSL
# Measurement protocol: steady-state kinetics with fluorogenic 4MU-GlcNAc, Lineweaver-Burk, competitive inhibition fit
Assay metric: pKi
Scale: negative log10 of molar concentration, which is what pKi denotes.

For the compound CN(N=O)C(=O)N[C@H]1C(O)O[C@H](CO)[C@@H](O)[C@@H]1O (stereo partly shown) , give its reported pKi.
4.19
